tested_system: UniProtKB Q08493
Sequence (Q08493 whole entry): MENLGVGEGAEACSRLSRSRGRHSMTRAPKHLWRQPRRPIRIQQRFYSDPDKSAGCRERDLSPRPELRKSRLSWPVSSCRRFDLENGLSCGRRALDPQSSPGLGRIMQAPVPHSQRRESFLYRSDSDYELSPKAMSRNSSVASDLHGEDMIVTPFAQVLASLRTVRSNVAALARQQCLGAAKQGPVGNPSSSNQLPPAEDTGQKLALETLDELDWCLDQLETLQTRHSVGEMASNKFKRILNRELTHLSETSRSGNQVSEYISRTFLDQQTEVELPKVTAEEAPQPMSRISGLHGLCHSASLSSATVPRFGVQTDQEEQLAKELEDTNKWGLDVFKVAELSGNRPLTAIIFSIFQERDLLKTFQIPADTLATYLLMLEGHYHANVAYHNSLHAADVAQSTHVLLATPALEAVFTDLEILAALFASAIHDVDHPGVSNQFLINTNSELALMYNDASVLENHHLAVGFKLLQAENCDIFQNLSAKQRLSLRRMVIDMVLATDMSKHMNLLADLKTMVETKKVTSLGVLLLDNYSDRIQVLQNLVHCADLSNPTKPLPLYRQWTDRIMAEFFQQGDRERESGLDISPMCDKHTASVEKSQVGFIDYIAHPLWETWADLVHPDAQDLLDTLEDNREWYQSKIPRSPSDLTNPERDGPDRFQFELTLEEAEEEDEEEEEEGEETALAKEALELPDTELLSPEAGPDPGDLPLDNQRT
test_name: Evaluated in vitro for its inhibitory activity on unpurified recombinant Phosphodiesterase 4C
observable: IC50 (nM)
The answer is to be given in nM; state only the numeric part.

Take a look at these entries with their results.
>  <compound>
COc1ccc(C2=NOC(C)(C(=O)NO)C2)cc1OC1CCCC1 (centres undefined)

>  <units_symbol>
nM

>  <IC50>
95.2

$$$$
>  <compound>
COc1ccc(C(=O)NC(C)C(=O)NO)cc1OC1CCCC1 (centres undefined)

>  <units_symbol>
nM

>  <IC50>
126

$$$$
>  <compound>
COc1ccc(C(=O)NCC(=O)NO)cc1OC1CCCC1

>  <units_symbol>
nM

>  <IC50>
15.3

$$$$

Now consider the entry below.
Query: # input compound: COc1ccc(C2=NOC(C(=O)NO)C2)cc1OC1CCCC1 (centres undefined) ; wanted: its IC50
Reply: 18

----------
tested_system: 3',5'-cyclic-AMP phosphodiesterase 4D (Homo sapiens)
Sequence (Q08499 whole entry): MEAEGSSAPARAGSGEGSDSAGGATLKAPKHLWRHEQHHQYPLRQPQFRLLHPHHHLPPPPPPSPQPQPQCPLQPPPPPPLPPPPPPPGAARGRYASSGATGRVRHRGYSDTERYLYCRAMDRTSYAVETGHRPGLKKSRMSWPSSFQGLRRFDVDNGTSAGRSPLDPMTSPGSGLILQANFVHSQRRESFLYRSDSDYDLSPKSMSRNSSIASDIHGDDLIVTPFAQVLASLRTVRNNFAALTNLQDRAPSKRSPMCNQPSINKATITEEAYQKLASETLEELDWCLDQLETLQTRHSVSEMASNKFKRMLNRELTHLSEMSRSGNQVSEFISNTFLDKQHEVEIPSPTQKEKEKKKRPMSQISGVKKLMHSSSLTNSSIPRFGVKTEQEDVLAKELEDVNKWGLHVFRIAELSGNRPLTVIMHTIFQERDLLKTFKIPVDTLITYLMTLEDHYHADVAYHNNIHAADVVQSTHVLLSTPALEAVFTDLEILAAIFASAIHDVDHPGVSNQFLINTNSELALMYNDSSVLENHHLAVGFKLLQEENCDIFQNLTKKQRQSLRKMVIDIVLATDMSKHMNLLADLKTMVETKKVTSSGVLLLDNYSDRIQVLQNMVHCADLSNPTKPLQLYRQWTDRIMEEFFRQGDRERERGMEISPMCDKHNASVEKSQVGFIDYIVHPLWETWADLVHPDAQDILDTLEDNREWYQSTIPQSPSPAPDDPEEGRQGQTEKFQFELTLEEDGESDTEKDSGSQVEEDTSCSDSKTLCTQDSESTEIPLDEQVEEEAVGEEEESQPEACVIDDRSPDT
test_name: In vitro inhibitory activity on unpurified recombinant Phosphodiesterase 4D
Recorded measurements of pIC50, one per entry
Please note pIC50 is a logarithmic value: minus log10 of concentration in mol/L. Answer with that number alone.

Take a look at these entries with their results.
>  <molecule>
COc1ccc(C(=O)NC(C)C(=O)NO)cc1OC1CCCC1 (centres undefined)

>  <pIC50>
7.69

$$$$
>  <molecule>
COc1ccc(C2=NOC(C(=O)NO)C2)cc1OC1CCCC1 (centres undefined)

>  <pIC50>
8.57

$$$$
>  <molecule>
COc1ccc(C(=O)NCC(=O)NO)cc1OC1CCCC1

>  <pIC50>
7.81

$$$$

Now consider the entry below.
Query: # input molecule: COc1ccc(C2=NOC(C)(C(=O)NO)C2)cc1OC1CCCC1 (centres undefined) ; wanted: its pIC50
Reply: 8.00

----------
tested_system: Phosphodiesterase 4 (Homo sapiens, UniProt P27815+Q08499+Q07343+Q08493)
test_name: Evaluated in vitro for its inhibitory activity on human monocyte cytosol Phosphodiesterase type 4 (PDE4).
Type: protein assay
Recorded measurements of IC50, one per entry
Number first, unit second.

Take a look at these entries with their results.
>  <compound>
COc1ccc(-c2cc(C(=O)NO)on2)cc1OC1CCCC1

>  <tested_system>
Phosphodiesterase 4 (Homo sapiens, UniProt P27815+Q08499+Q07343+Q08493)

>  <observable>
IC50

>  <value_observed>
1650 nM

$$$$
>  <compound>
COc1ccc(C2=NOC(CC(=O)NO)C2)cc1OC1CCCC1 (centres undefined)

>  <tested_system>
Phosphodiesterase 4 (Homo sapiens, UniProt P27815+Q08499+Q07343+Q08493)

>  <observable>
IC50

>  <value_observed>
221 nM

$$$$
>  <compound>
COc1ccc(C2=NOC(C(=O)O)C2)cc1OC1CCCC1 (centres undefined)

>  <tested_system>
Phosphodiesterase 4 (Homo sapiens, UniProt P27815+Q08499+Q07343+Q08493)

>  <observable>
IC50

>  <value_observed>
2540 nM

$$$$
>  <compound>
COc1ccc(C(=O)NCC(=O)NO)cc1OC1CCCC1

>  <tested_system>
Phosphodiesterase 4 (Homo sapiens, UniProt P27815+Q08499+Q07343+Q08493)

>  <observable>
IC50

>  <value_observed>
249 nM

$$$$
>  <compound>
CCC1(C(=O)NO)CC(c2ccc(OC)c(OC3CCCC3)c2)=NO1 (centres undefined)

>  <tested_system>
Phosphodiesterase 4 (Homo sapiens, UniProt P27815+Q08499+Q07343+Q08493)

>  <observable>
IC50

>  <value_observed>
178 nM

$$$$
>  <compound>
COc1ccc(C2=NOC(C(=O)N(C)O)C2)cc1OC1CCCC1 (centres undefined)

>  <tested_system>
Phosphodiesterase 4 (Homo sapiens, UniProt P27815+Q08499+Q07343+Q08493)

>  <observable>
IC50

>  <value_observed>
3960 nM

$$$$
>  <compound>
COc1ccc(C(=O)NCC(=O)O)cc1OC1CCCC1

>  <tested_system>
Phosphodiesterase 4 (Homo sapiens, UniProt P27815+Q08499+Q07343+Q08493)

>  <observable>
IC50

>  <value_observed>
1760 nM

$$$$
>  <compound>
COc1ccc(C2=NOC(C(N)=O)C2)cc1OC1CCCC1 (centres undefined)

>  <tested_system>
Phosphodiesterase 4 (Homo sapiens, UniProt P27815+Q08499+Q07343+Q08493)

>  <observable>
IC50

>  <value_observed>
3930 nM

$$$$

Now consider the entry below.
Query: # input compound: CCCC1(C(=O)NO)CC(c2ccc(OC)c(OC3CCCC3)c2)=NO1 (centres undefined) ; wanted: its IC50
Reply: 567 nM

----------
tested_system: 3',5'-cyclic-AMP phosphodiesterase 4B (Homo sapiens)
Sequence (Q07343 whole entry): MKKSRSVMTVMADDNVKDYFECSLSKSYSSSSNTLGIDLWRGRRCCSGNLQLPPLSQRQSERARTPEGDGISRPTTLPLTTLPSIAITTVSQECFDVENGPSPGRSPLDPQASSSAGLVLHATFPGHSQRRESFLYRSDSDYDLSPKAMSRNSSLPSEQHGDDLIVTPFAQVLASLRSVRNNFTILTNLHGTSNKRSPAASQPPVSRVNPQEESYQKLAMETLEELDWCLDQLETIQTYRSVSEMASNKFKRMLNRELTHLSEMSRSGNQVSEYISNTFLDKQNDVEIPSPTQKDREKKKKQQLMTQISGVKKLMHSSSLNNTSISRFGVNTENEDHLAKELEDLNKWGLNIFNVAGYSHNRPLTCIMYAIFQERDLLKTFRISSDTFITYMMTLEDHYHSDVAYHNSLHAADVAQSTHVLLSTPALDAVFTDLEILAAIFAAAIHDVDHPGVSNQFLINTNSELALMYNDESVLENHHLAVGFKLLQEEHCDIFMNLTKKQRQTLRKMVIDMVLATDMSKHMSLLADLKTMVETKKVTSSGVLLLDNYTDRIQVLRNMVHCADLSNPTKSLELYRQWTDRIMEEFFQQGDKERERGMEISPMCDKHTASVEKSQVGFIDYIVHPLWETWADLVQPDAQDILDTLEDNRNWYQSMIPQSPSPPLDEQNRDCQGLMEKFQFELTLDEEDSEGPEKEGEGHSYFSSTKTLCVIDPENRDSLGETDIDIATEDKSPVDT
test_name: Inhibition of recombinant human Phosphodiesterase 4B
observable: pIC50
Please note pIC50 is a logarithmic value: minus log10 of concentration in mol/L. Answer with that number alone.

Take a look at these entries with their results.
>  <molecule>
COc1ccc(C2=NOC(C)(C(=O)NO)C2)cc1OC1CCCC1 (centres undefined)

>  <tested_system>
3',5'-cyclic-AMP phosphodiesterase 4B (Homo sapiens)

>  <observable>
pIC50

>  <value_observed>
7.96

$$$$
>  <molecule>
COc1ccc(C(=O)NC(C)C(=O)NO)cc1OC1CCCC1 (centres undefined)

>  <tested_system>
3',5'-cyclic-AMP phosphodiesterase 4B (Homo sapiens)

>  <observable>
pIC50

>  <value_observed>
7.65

$$$$
>  <molecule>
COc1ccc(C(=O)NCC(=O)NO)cc1OC1CCCC1

>  <tested_system>
3',5'-cyclic-AMP phosphodiesterase 4B (Homo sapiens)

>  <observable>
pIC50

>  <value_observed>
7.75

$$$$

Query: # input molecule: COc1ccc(C2=NOC(C(=O)NO)C2)cc1OC1CCCC1 (centres undefined) ; wanted: its pIC50
Reply: 8.68

This collection of values is drawn from ChEMBL document CHEMBL1131452.
